Listed compounds paired with reported inhibition
target: Methyl-CpG-binding domain protein 4 (Homo sapiens) (UniProt O95243); conditions: Compound Concentration 10.0 uM, Hit No;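 further: MBD4 activity read as fluorescence at 594 nm from cleavage and release of a quenched duplex DNA oligonucleotide, with APE1 coupled to incise the strand and raise turnover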
Sequence (O95243 whole entry, the tested form may be a part): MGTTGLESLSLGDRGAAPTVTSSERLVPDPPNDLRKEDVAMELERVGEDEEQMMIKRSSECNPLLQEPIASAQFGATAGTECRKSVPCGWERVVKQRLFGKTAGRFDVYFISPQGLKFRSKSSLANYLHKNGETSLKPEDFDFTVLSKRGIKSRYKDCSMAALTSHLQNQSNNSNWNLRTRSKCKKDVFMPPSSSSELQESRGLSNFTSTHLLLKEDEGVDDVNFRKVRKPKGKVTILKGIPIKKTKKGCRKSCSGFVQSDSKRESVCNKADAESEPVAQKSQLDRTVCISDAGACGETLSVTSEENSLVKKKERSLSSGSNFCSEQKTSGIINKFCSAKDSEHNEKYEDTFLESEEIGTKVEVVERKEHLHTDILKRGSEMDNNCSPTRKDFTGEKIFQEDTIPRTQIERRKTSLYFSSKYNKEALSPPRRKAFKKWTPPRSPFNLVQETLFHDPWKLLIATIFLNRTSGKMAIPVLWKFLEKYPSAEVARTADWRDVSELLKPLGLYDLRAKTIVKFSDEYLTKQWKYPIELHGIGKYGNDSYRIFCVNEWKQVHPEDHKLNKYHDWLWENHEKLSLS
Description: Inhibition of MBD4 by quantifying inhibition of MBD4-mediated cleavage and dissociation of quenched duplex DNA oligonucleotides, measured as fluorescence at 594 nm. To generate a functional strand incision and increase turn-over this assay is coupled to APE1.
I only need the number, in %, no unit after it.

Recorded result, Cn1cc(-c2ccc3occ(-c4ccccc4-c4ccccc4)c3n2)cn1 , inhibition: -2.48

Quick note, inhibition for CC(C)NC(=O)N1CC[C@H](NC2=Nc3cc(F)ccc3N(CC(F)F)c3ccc(Cl)cc32)C1 landed at 0.374

Record summary for C[C@H](c1ccc(F)cc1)N(Cc1cccc(C(=O)O)c1)C(=O)c1cnc2ccccc2c1 : reported inhibition = 54.2

Sure, the documented inhibition for c1ccc(C2CN3CCC2CC3)cc1 (centres undefined) is 22

Just so you know, measured inhibition for COC(=O)C1=C(C)NC(C)=C(C(=O)OCCCN2CCC(c3ccccc3)(c3ccccc3)CC2)[C@H]1c1cccc([N+](=O)[O-])c1 came out at -5.72

Lab book: inhibition of Cn1cncc1[C@@](O)(COc1ccc(C#N)cc1-c1ccc(OC(F)(F)F)cc1)c1ccc(C#N)cc1 noted as 56

Lab note: CC(C)(O)c1ccc2c(c1)ncn2-c1cccc(-c2ccccc2C#N)c1 gave inhibition of 26.4

# inhibition of COCc1nc2cnc3cc(-c4c(C)noc4C)c(OC[C@H]4CCNC4)cc3c2n1[C@H](C)c1ccccc1 = 57.4

Reported inhibition ( COCCOCCn1nc2c(c1C)-c1c(Cl)ccc3c1c(C)c(C(=O)O)n3CCCOc1cc(cc3c(F)c(Cl)ccc13)CCc1cc(nn1C)CSC2 ) = 77.7
